System: normal primary NK cells, pool 2 (3 donors) (IL-2 2.5 ng/mL)
procedure.summary: percent inhibition of viability; higher = more inhibition;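 also: normalised to DMSO-only wells as negative and benzethonium chloride as positive control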
condition.summary: 72 h; 100 nM
observed.property: percent inhibition of viability (%)
Write the answer as a number in %, unit excluded.

Completed entries (count: 2):
Cc1sc2c(c1C)C(c1ccc(Cl)cc1)=N[C@@H](CC(=O)Nc1ccc(O)cc1)c1nnc(C)n1-2 [OTX015] (max concentration tested 10000 nM)	15.3
O=C1NC(=O)/C(=C/c2ccc3nccc(-c4ccncc4)c3c2)S1 (max concentration tested 10000 nM)	12.6

Consider now this further compound.
Return reported percent inhibition of viability; argument: CNC(=O)c1cccc2cc(Oc3ccnc4cc(OCC5(N)CC5)c(OC)cc34)ccc12 [Lucitanib] (max concentration tested 10000 nM)
2.46

---

Tested on: normal primary NK cells, pool 1 (3 donors) (IL-2 2.5 ng/mL)
procedure.summary: percent inhibition of viability; higher = more inhibition
condition.summary: 72 h; 1 nM
observed.property: percent inhibition of viability (%)
# unit: % | format: bare number

Cc1cc(Nc2cc(CN3CCOCC3)c3nc(C)c(Cc4ccc(Cl)cc4F)n3n2)n[nH]1 [Gandotinib] (max concentration tested 10000 nM)	-11.8
O=C(O)CC1CC(c2ccccc2)=NO1 (centres undefined) [VGX-1027] (max concentration tested 10000 nM)	-3.12
COCC1(CO)C(=O)C2CCN1CC2 (centres undefined) [APR-246] (max concentration tested 10000 nM)	0.39
O=C(Nc1cccc(Cl)c1)Nc1ncc(CCNc2ncnc3ccsc23)s1 [SNS-314] (max concentration tested 1000 nM)	16.9
Cn1cc(C2=Nc3cc(NC(=O)C(N)C4CCCCC4)cc4c3C2=CNNC4=O)cn1 (centres undefined) (max concentration tested 10000 nM)	-1.65

Now for a further molecule.
Lab note: need percent inhibition of viability with normal primary NK cells, pool 1 (3 donors) (IL-2 2.5 ng/mL) for entry CCn1c(-c2nonc2N)nc2cnc(Oc3cccc(NC(=O)c4ccc(OCCN5CCOCC5)cc4)c3)cc21 (max concentration tested 10000 nM) , please look it up.
-7.22

---

Property: percent inhibition of viability; scope: individual compounds
System: YT (IL-2 2.5 ng/mL)
procedure.summary: percent inhibition of viability; higher = more inhibition
condition.summary: 72 h; 1 nM
Express it in %; write the number only.

Study these solved cases before continuing.
O=C(Nc1ccncc1)C(=O)c1cn(Cc2ccc(Cl)cc2)c2ccccc12 [Indibulin] (max concentration tested 10000 nM)	-4.48
CCn1c(-c2nonc2N)nc2c(C#CC(C)(C)O)ncc(OC[C@H]3CCCNC3)c21 (max concentration tested 10000 nM)	-1.14
CC1(C)CCC(CN2CCN(c3ccc(C(=O)NS(=O)(=O)c4ccc(NCC5CCOCC5)c([N+](=O)[O-])c4)c(Oc4cnc5[nH]ccc5c4)c3)CC2)=C(c2ccc(Cl)cc2)C1 [Venetoclax] (max concentration tested 10000 nM)	3.82

// lookup percent inhibition of viability for COc1cc2c(cc1O)CC[C@@H]1[C@@H]2CC[C@]2(C)[C@@H](O)CC[C@@H]12 [2-methoxyestradiol] (max concentration tested 10000 nM)
-5.93

Same thing, different compound: CCS(=O)(=O)c1cccc(-c2cc(C(=O)NC3CCN(C)CC3)c(C)c3[nH]c4ncc(C)cc4c23)c1 [TAK-901] (max concentration tested 1000 nM)
-0.2

Next compound: O=C(Nc1cccc(Cl)c1)Nc1ncc(CCNc2ncnc3ccsc23)s1 [SNS-314] (max concentration tested 1000 nM)
-1.46
